- experimental system: SHP2-C SH2;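 also: peptide library displayed on the E. coli surface as eCPX fusions, selected cells deep-sequenced, score is each peptide's frequency after selection divided by its frequency in the input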
- test protocol: SH2 binding enrichment of the phosphorylated peptide, bacterial display (enrichment ratio); higher = better substrate or ligand; peptides without Tyr show the background
# thresholds on SH2 binding enrichment define classes: class 0: < 0.8; class 1: ≥ 0.8 and < 1; class 2: ≥ 1

See these solved cases before continuing.
residues	experimental system	class label
EREYKYGAHNH [OAT_Y50_Y55H]	SHP2-C SH2	class 0
PESIMYRKFTT [NTRK3_Y744]	SHP2-C SH2	class 0
MEYAKYGSLRG [RET_Y809_V804M]	SHP2-C SH2	class 0
QLRPGYIPIPV [BAG3_Y93]	SHP2-C SH2	class 0
SGRSGYCLGTR [SCO1_Y60_P58S]	SHP2-C SH2	class 0
NGSKAYAFVHF [PABPC5_Y147_G146A_YF]	SHP2-C SH2	class 2
FNDSAYNQQLI [ZPLD1_Y198_T197A_YF]	SHP2-C SH2	class 0
VEDQFYRVDCF [FHL1_Y208_C209R_YF]	SHP2-C SH2	class 0
FPQARYHWLVL [APTX_Y214_K211Q_YF]	SHP2-C SH2	class 2
FSCLPCGRLAF [SLC52A2_Y305_Y305C_YF]	SHP2-C SH2	class 2

Quick check: band for ERFAFYRDSPR [FOXE3_Y108]
class 0

Quick check: band for TFRPPYYHRDC [HGD_Y333_N337D]
class 2

Quick check: band for FIATQYSLCPR [LBR_Y166_R169C_YF]
class 1

Quick check: band for KHMADYPDCKY [SOX11_Y113_Y116C]
class 2

Quick check: band for ETDTRYFDEEF [AKT1_Y437]
class 1

Quick check: band for GDDLSYGDVPP [IRS1_Y151_E147D]
class 0

Quick check: band for FSVDSYDSSVR [KCNQ1_Y461_G460S]
class 1

Quick check: band for AAVPAYDKIRV [STXBP2_Y401]
class 0

Quick check: band for VVQGIYGFHHH [UFSP2_Y285_Y290H_YF]
class 0

Quick check: band for VTQEQYELHCE [CBL_Y368_Y371H]
class 0

Quick check: band for FPKARYHWLVL [APTX_Y214_YF]
class 2

Quick check: band for KVQVSYKGDTK [HSPA1A_Y107_E110D]
class 0

Quick check: band for RIILLYIFLKN [STXBP1_Y411]
class 2

Quick check: band for VTQEPYELYCE [CBL_Y368_Q367P]
class 1

Quick check: band for IYKAAYFGVYD [SLC25A4_Y191_R188K]
class 2

Quick check: band for GRTNIYKNKKD [SLC26A3_Y520]
class 1

Quick check: band for KAIMIYVSSFY [ACTN4_Y260_T259I]
class 1

Quick check: band for VTVLDYEKIGK [SYT1_Y365_D366E]
class 0

Quick check: band for LQLLGHRPVFS [CHST6_Y358_Y358H_YF]
class 1

Quick check: band for GVLKEYVVKVL [CPS1_Y529_G530V]
class 0

Quick check: band for AGRSGYDNREI [BCL2_Y9_T7S]
class 0

Quick check: band for VNYGAYINDFK [GLB1_Y488]
class 1

Quick check: band for LITTLYSGFLG [KCNQ1_Y267_I268S]
class 2

Quick check: band for AAVDEYLEHRR [FAM221A_Y17_Y20H]
class 0

Quick check: band for IHHIDYFKKTT [FGFR1_Y653_YF]
class 0

Quick check: band for DLDATYRPMYS [JUP_Y701_M697L]
class 1
